Tested on: T2 cell lines preincubated with peptide
Assay: Recognition of modified peptides by natural epitope (M9-2, G9-154, G9-209, G9-280) reactive T-cells, 51Cr release on peptide-pulsed T2 cells (Example 5)
Assay type: cell-based, human
Procedure: Assessment of antigen recognition by CTL. ^51Cr release cytotoxic assays were performed to detect the recognition of peptide and melanoma cells by CTL. To analyze peptide recognition, T2 cell lines were preincubated for 2 h at 37° C. with 1 ug/ml peptide, washed and used as target cells in a ^51Cr release cytotoxic assay. The melanoma lines 624mel was established in our laboratory (See Example 1). […]
Where a SMILES comes first, the peptide text is derived from it.
Observable: Recognition by G9-154 reactive T-cell

CC(C)C[C@H](NC(=O)[C@@H](N)Cc1ccc(O)cc1)C(=O)N[C@@H](Cc1c[nH]c2ccccc12)C(=O)NCC(=O)N[C@@H](CCC(N)=O)C(=O)N[C@@H](Cc1ccc(O)cc1)C(=O)N[C@@H](Cc1c[nH]c2ccccc12)C(=O)N[C@@H](CCC(N)=O)C(=O)N[C@H](C(=O)O)C(C)C [G9-154-1Y2L] (H-YLWGQYWQV-OH; N-terminus and C-terminus assumed) = −
CC(C)[C@H](NC(=O)[C@H](CCC(N)=O)NC(=O)[C@H](Cc1c[nH]c2ccccc12)NC(=O)[C@H](Cc1ccc(O)cc1)NC(=O)[C@H](CCC(N)=O)NC(=O)CNC(=O)[C@H](Cc1c[nH]c2ccccc12)NC(=O)[C@@H](NC(=O)[C@@H](N)Cc1ccccc1)[C@@H](C)O)C(=O)O [G9-154-1F] (H-FTWGQYWQV-OH; N-terminus and C-terminus assumed) = −

###

test system: T2 cell lines preincubated with peptide; experiment: Recognition of modified peptides by natural epitope (M9-2, G9-154, G9-209, G9-280) reactive T-cells, 51Cr release on peptide-pulsed T2 cells (Example 5); format: cell-based, human
Observable: Recognition by M9-2 reactive T-cell

CC[C@H](C)[C@H](NC(=O)CNC(=O)[C@@H](NC(=O)[C@H](Cc1c[nH]c2ccccc12)NC(=O)[C@H](CC(C)C)NC(=O)[C@H](C)N)[C@@H](C)CC)C(=O)N[C@@H](CC(C)C)C(=O)N[C@H](C(=O)N[C@H](C(=O)O)C(C)C)[C@@H](C)O = −
CC[C@H](C)[C@H](NC(=O)CNC(=O)[C@@H](NC(=O)[C@@H](N)CCCCN)[C@@H](C)CC)C(=O)NCC(=O)N[C@H](C(=O)N[C@@H](CC(C)C)C(=O)N[C@H](C(=O)N[C@H](C(=O)O)C(C)C)[C@@H](C)O)[C@@H](C)CC = −
CC[C@H](C)[C@H](NC(=O)CNC(=O)[C@H](CCSC)NC(=O)[C@@H](N)CCCCN)C(=O)NCC(=O)N[C@H](C(=O)N[C@@H](CC(C)C)C(=O)N[C@H](C(=O)N[C@H](C(=O)O)C(C)C)[C@@H](C)O)[C@@H](C)CC = −

###

molecular target: HLA-A2.1 (Homo sapiens, UniProt P04439, D140Y/D185E/D98H/E176V/E277Q/G131W/G231S/I119V/I121R/I166T/I218V/L300P/L318F/N151K/N90K/P208A/P217A/Q86G/Q94H/R138H/R169H/T345S); test: HLA-A2.1 binding assay of modified peptides, inhibition of radiolabeled Hbc 18-27 (Example 5); details: modified gp100 G9-154 peptides; read-out: Binding affinity to HLA-A2.1
Where a SMILES comes first, the peptide text is derived from it.
// reported IC50 per item
Your answer is read as nM, so omit the unit and give the number.

Known results for molecules:
CC(C)C[C@H](NC(=O)[C@@H](N)Cc1ccc(O)cc1)C(=O)N[C@@H](Cc1c[nH]c2ccccc12)C(=O)NCC(=O)N[C@@H](CCC(N)=O)C(=O)N[C@@H](Cc1ccc(O)cc1)C(=O)N[C@@H](Cc1c[nH]c2ccccc12)C(=O)N[C@@H](CCC(N)=O)C(=O)N[C@H](C(=O)O)C(C)C [G9-154-1Y2L] (H-YLWGQYWQV-OH; N-terminus and C-terminus assumed) = 1.7
CC(C)C[C@H](NC(=O)[C@@H](N)Cc1ccccc1)C(=O)N[C@@H](Cc1c[nH]c2ccccc12)C(=O)NCC(=O)N[C@@H](CCC(N)=O)C(=O)N[C@@H](Cc1ccc(O)cc1)C(=O)N[C@@H](Cc1c[nH]c2ccccc12)C(=O)N[C@@H](CCC(N)=O)C(=O)N[C@H](C(=O)O)C(C)C [G9-154-1F2L] (H-FLWGQYWQV-OH; N-terminus and C-terminus assumed) = 2.6

We now examine a further molecule.
Quick check: IC50 of CC(C)[C@H](NC(=O)[C@H](CCC(N)=O)NC(=O)[C@H](Cc1c[nH]c2ccccc12)NC(=O)[C@H](Cc1ccc(O)cc1)NC(=O)[C@H](CCC(N)=O)NC(=O)CNC(=O)[C@H](Cc1c[nH]c2ccccc12)NC(=O)[C@@H](NC(=O)[C@@H](N)Cc1c[nH]c2ccccc12)[C@@H](C)O)C(=O)O [G9-154-1W] (H-WTWGQYWQV-OH; N-terminus and C-terminus assumed) ?
60
